- TESTED ON: T1, EsCas13d, nuclease-dead (Eubacterium siraeum, UniProt B0MS50, R295A;H300A;R849A;H854A)
- T1 sequence: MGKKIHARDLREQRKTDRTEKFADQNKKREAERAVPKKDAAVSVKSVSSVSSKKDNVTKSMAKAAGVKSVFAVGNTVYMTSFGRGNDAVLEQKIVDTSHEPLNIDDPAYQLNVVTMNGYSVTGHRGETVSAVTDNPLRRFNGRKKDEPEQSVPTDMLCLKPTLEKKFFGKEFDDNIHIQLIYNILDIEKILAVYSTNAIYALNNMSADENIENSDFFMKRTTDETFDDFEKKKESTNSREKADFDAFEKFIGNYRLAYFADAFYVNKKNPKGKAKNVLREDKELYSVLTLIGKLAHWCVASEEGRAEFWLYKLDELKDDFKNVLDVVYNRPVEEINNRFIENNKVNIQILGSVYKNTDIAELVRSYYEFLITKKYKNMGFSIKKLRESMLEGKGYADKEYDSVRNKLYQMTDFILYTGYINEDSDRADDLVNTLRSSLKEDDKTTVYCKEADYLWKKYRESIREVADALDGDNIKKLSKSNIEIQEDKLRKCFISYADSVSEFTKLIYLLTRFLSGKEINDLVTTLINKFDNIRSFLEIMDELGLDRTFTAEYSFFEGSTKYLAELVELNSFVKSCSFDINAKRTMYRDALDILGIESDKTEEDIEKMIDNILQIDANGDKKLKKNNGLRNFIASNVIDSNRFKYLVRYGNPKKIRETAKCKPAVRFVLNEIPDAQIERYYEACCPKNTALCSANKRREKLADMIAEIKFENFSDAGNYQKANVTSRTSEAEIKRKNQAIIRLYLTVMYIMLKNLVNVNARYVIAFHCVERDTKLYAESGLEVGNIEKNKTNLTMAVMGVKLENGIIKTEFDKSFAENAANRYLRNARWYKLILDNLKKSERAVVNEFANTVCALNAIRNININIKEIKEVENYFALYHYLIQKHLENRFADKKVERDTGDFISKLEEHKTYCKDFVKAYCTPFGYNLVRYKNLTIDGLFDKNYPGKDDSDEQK
- TEST: crRNA (strand 1, pre-loaded); Mg2+; 40 mM Tris-HCl pH 7.5, 150 mM NaCl, 6 mM MgCl2, 1 mM DTT, 0.1% Tween-20, 0.2 mg/ml BSA; 25 C; 10 min per concentration, then washed
- CONDITION DETAILS: tags: His6-TwinStrep-SUMO cleaved; N-terminal SNAP kept (SNAP-Surface 488); label: 3' end held by stalled T7 RNA polymerase
Binary call on Kd with cut-off 50 nM: strictly below means Condition met, and equality or higher means Condition not met.

INSERT INTO assay_data (binder, qualitative_label) VALUES
  ('target 1 insC 3'' of 15,insA 3'' of 4 (mixed) RNA 1: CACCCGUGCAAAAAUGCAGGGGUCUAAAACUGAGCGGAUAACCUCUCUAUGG RNA 2: GGGAAUGGAUCCACAUCUACGAAUUCGUACCAUAGAGCAGGUUAUCCGCAUCACCGAGAUCGGAAGAGCACACGU', 'Condition met'),
  ('target 1 MT 5''PFS GUU 3''PFS AAA (mixed) RNA 1: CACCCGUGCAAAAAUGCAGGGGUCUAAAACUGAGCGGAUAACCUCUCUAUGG RNA 2: GGGAAUGGAUCCACAUCUACGAAUUCGUUCCAUAGAGAGGUUAUCCGCUCAAAAAGAUCGGAAGAGCACACGU', 'Condition met'),
  ('target 2 MT 5''PFS CGC 3''PFS CGC (mixed) RNA 1: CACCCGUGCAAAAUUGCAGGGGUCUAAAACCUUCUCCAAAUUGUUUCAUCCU RNA 2: GGGAAUGGAUCCACAUCUACGAAUUCCGCAGGAUGAAACAAUUUGGAGAAGCGCAGAUCGGAAGAGCACACGU', 'Condition met'),
  ('target 1 U3C,G5A (mixed) RNA 1: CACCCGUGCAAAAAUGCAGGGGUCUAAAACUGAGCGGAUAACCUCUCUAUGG RNA 2: GGGAAUGGAUCCACAUCUACGAAUUCGUACCAUAGAGAGGUUAUCCACCCACCGAGAUCGGAAGAGCACACGU', 'Condition not met'),
  ('target 1 C4A,U10A (mixed) RNA 1: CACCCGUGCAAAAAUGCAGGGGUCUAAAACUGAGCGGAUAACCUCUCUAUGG RNA 2: GGGAAUGGAUCCACAUCUACGAAUUCGUACCAUAGAGAGGUAAUCCGAUCACCGAGAUCGGAAGAGCACACGU', 'Condition met'),
  ('target 1 U3A,C4A (mixed) RNA 1: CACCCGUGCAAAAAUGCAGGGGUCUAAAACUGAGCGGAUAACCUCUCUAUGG RNA 2: GGGAAUGGAUCCACAUCUACGAAUUCGUACCAUAGAGAGGUUAUCCGAACACCGAGAUCGGAAGAGCACACGU', 'Condition met');
